target: JAK2 (recombinant purified GST-tagged catalytic domain) (Homo sapiens (Human), UniProt O60674); assay: Jak Biochemical HTRF Assay (JAK2); conditions: [ATP] 8.5 μM
Sequence (O60674 849-1124): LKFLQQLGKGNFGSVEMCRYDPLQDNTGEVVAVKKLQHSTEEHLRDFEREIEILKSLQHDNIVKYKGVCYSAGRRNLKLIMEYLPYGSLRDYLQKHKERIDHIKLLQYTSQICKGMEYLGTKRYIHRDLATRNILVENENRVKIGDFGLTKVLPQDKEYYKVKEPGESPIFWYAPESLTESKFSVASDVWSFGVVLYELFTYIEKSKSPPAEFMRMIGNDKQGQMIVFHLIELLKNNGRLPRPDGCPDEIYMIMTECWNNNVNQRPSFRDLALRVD
Assignment: determine reported pIC50 for the given compounds.
Keep in mind that pIC50 stands for -log10 of concentration in molar terms.

pIC50 for CS(=O)(=O)c1ccc(Nc2nn(C3(CC#N)CCN(c4ccc(C#N)cn4)CC3)c3cc[nH]c(=O)c23)cc1 [Example 15-2] ?
10.40

pIC50 for CC(C)(C)OC(=O)N1CC(CC#N)(n2nc(Nc3ccc(F)cc3)c3c(=O)[nH]ccc32)C1 [Example 4-3] ?
7.44

pIC50 for CN1Cc2cc(Nc3nn([C@]4(CC#N)CC[C@@H](N(C)C)CC4)c4cc[nH]c(=O)c34)ccc2S1(=O)=O [Example 18-34] ?
7.92

pIC50 for CCOC(=O)C(C)(C)C(O)(c1ccc(Nc2nn([C@]3(CC#N)CCCOC3)c3cc[nH]c(=O)c23)cc1)C(F)(F)F (single isomer, unassigned) [Example 5-113] ?
9.47

pIC50 for N#CC[C@@]1(n2nc(Nc3ccc(C(N4CCCC4)C(F)(F)F)cc3)c3c(=O)[nH]ccc32)CCCOC1 (single isomer, unassigned) [Example 5-199] ?
9.48

pIC50 for CNc1nn(C2(CC#N)CCN(C(=O)OC(C)(C)C)CC2)c2cc[nH]c(=O)c12 [Example 2-5] ?
6.31
